Quick list: self-cleavage kobs at 2500 uM GlcN6P per entry.
B1: glmS ribozyme (parent)
chain: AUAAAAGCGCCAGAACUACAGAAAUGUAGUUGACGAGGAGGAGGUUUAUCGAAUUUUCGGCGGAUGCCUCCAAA

# Variants of: B1
# method notes: self-cleavage kobs at 2500 uM GlcN6P; higher = faster cleavage; RNA array
# study conditions: with glucosamine-6-phosphate
This sample holds only a part of the variants without activity.
Numbers only; they are read as s⁻¹.

sequence_change="G13U U65A" value_kind="self-cleavage kobs at 2500 uM GlcN6P" number=7.82e-05
sequence_change="U56A U69C" value_kind="self-cleavage kobs at 2500 uM GlcN6P" number=0.000572
sequence_change="G29U U49G" value_kind="self-cleavage kobs at 2500 uM GlcN6P" number=3.79e-05
sequence_change="G40C U45A" value_kind="self-cleavage kobs at 2500 uM GlcN6P" number=0.00123
sequence_change="A15G G29A" value_kind="self-cleavage kobs at 2500 uM GlcN6P" number=0.00164

Ask: Fill in the blank: the reported self-cleavage kobs at 2500 uM GlcN6P of U65C G66A is ____.
Result: 0.000323

Ask: Any idea what its self-cleavage kobs at 2500 uM GlcN6P is? The variant is C11U C61A C67G
Result: 7.14e-05

Ask: Fill blank: measured self-cleavage kobs at 2500 uM GlcN6P of the variant G29U U55G is ____.
Result: 0.00177

Ask: Would you mind telling me what self-cleavage kobs at 2500 uM GlcN6P value was observed for C16G U54A ?
Result: 0.0024

Ask: Given the variant A6U A12C A53U , what is its reported self-cleavage kobs at 2500 uM GlcN6P?
Result: 4.17e-05

Ask: What does the record list as self-cleavage kobs at 2500 uM GlcN6P for U47A U65G ?
Result: 0.00229

Ask: Quick one: self-cleavage kobs at 2500 uM GlcN6P of A15U C68G ?
Result: 4.48e-05

Ask: If you can, please state the reported self-cleavage kobs at 2500 uM GlcN6P value of U56G U69G .
Result: 4.98e-05

Ask: // self-cleavage kobs at 2500 uM GlcN6P lookup, key: A14G G29C
Result: 0.000253

Ask: Dear colleague, I am looking for the recorded self-cleavage kobs at 2500 uM GlcN6P of the following variant: A14U U55C
Result: 0.00352

Ask: Could you tell me which self-cleavage kobs at 2500 uM GlcN6P is on file for A33U U47G ?
Result: 4.09e-05

Ask: Which value of self-cleavage kobs at 2500 uM GlcN6P has been reported for A14G C70A in the records?
Result: 0.000484

Ask: Entry U57A A64U C67U U69G : reported self-cleavage kobs at 2500 uM GlcN6P = ?
Result: 8.87e-05
